- experimental protocol: Steady-state tryptophan fluorescence and CD with and without POPC liposomes
- Format: physicochemical
- measurement conditions: with POPC liposomes pH 3; normalized on area for peptide at pH 8 in absence of POPC
Peptide text beside a SMILES is read from it.
quantity kind: S, normalized area under the spectra, Pep-PC, pH3
Enter the number alone.

// solved cases for S, normalized area under the spectra, Pep-PC, pH3 follow
compound: O=C(O)CC[C@@H]1NC(=O)[C@H](Cc2c[nH]c3ccccc23)NC(=O)[C@H](CS)NC(=O)[C@H](Cc2c[nH]c3ccccc23)NC(=O)[C@H](CCC(=O)O)NC(=O)[C@H](Cc2c[nH]c3ccccc23)NC(=O)[C@H](CCC(=O)O)NC(=O)[C@H](Cc2c[nH]c3ccccc23)NC(=O)[C@H](CCC(=O)O)NC(=O)[C@H](Cc2c[nH]c3ccccc23)NC(=O)[C@H](CCC(=O)O)NC(=O)[C@H](Cc2c[nH]c3ccccc23)NC1=O [c[(WE)5WC]] (cyclo(CWEWEWEWEWEW))
experimental result: 2.1

compound: O=C(O)CC[C@@H]1NC(=O)[C@H](CS)NC(=O)[C@H](Cc2c[nH]c3ccccc23)NC(=O)[C@H](Cc2c[nH]c3ccccc23)NC(=O)[C@H](Cc2c[nH]c3ccccc23)NC(=O)[C@H](Cc2c[nH]c3ccccc23)NC(=O)[C@H](Cc2c[nH]c3ccccc23)NC(=O)[C@H](CCC(=O)O)NC(=O)[C@H](CCC(=O)O)NC(=O)[C@H](CCC(=O)O)NC1=O [c[E4W5C]]
experimental result: 2.4

Quick note, S, normalized area under the spectra, Pep-PC, pH3 for O=C(O)CC[C@@H]1NC(=O)[C@H](Cc2c[nH]c3ccccc23)NC(=O)[C@H](CS)NC(=O)[C@H](Cc2c[nH]c3ccccc23)NC(=O)[C@H](CCC(=O)O)NC(=O)[C@H](Cc2c[nH]c3ccccc23)NC(=O)[C@H](CCC(=O)O)NC(=O)[C@H](Cc2c[nH]c3ccccc23)NC(=O)[C@H](CCC(=O)O)NC(=O)[C@H](Cc2c[nH]c3ccccc23)NC1=O [c[(WE)4WC]] (cyclo(CWEWEWEWEW)) landed at 1.6
